# Experimental System: PRMT5-MEP50 (Homo sapiens, UniProt O14744)
# Sequence (O14744 whole entry): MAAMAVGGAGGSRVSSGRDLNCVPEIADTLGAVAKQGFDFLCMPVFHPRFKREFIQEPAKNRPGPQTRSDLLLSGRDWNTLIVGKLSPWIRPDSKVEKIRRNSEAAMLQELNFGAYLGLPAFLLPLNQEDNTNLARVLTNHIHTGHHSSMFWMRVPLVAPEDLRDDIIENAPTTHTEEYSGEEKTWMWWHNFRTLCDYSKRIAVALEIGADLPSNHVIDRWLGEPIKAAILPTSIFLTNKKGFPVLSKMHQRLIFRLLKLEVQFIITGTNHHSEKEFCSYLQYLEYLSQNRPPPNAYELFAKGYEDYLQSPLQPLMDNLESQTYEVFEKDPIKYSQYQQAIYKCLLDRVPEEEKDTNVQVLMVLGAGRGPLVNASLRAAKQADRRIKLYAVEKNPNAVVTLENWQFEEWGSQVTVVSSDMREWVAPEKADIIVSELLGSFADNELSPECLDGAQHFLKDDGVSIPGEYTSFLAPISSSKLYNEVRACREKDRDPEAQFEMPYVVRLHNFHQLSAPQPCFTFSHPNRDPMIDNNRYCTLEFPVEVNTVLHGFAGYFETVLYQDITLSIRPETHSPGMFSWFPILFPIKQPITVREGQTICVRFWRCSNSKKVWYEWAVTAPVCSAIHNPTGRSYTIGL
# Sequence (Q9BQA1 whole entry partner): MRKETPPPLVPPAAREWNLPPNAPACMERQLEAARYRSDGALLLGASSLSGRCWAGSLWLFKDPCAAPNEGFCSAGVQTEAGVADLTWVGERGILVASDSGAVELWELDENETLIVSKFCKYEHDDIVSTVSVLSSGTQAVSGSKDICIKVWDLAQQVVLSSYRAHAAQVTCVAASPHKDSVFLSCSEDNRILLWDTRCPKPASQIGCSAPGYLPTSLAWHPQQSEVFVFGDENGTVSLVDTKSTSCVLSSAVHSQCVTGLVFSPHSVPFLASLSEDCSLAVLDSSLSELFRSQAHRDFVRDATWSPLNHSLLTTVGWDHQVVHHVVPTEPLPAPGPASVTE
# Assay: PRMT5 Assay (PRMT5 biochemical assay)
# Assay Conditions: PRMT5 biochemical assay; read-out: PRMT5 IC50
pIC50: −log10 of the molar value.
Each entry below lists one item and its recorded pIC50 value.

Observe how each entry below is paired with its result.
Nc1ccc2cc(CC[C@H]3C[C@@H](n4ccc5c(NCCc6ccccc6)ncnc54)[C@H](O)[C@@H]3O)ccc2n1 ... 6.00 to 7.00
Nc1ncnc2c1ccn2[C@@H]1C[C@H](CCc2ccc3c(OCc4ccccc4)ccnc3c2)[C@@H](O)[C@H]1O ... > 8.00

Consider the record given below.
Prompt line: Read the entry CNc1ccc2ccc(OC[C@H]3O[C@@H](n4cc(Cl)c5c(N)ncnc54)C[C@@H]3O)cc2n1 and write its reported pIC50.
Response line: 6.00 to 7.00
